The measured values listed here are drawn from PubChem BioAssay (EPA / NIEHS).

# Subject Of Test: Peroxisome proliferator-activated receptor gamma (Homo sapiens)
# Test: ATG_PPARg_TRANS: Attagene TRANS-FACTORIAL HepG2 Assay for human Peroxisome Proliferator-activated Receptor-gamma (PPARg) (AID 2283007)
Inconclusive results are not listed. Calls of active or inactive are those of the source. Rule for the calls: active = hit-call score of the fitted dose curve at least 0.9, where 1 is the maximum; inconclusive = response in the unintended direction; inactive = score below 0.9.
Measured Endpoint: AC50

Previously resolved entries follow.
Compound	Value Measured
CCCCC(CC)COC(=O)Cl (stereo not drawn)	inactive
Cc1ccc(OP(=O)(Oc2ccc(C)cc2C)Oc2ccc(C)cc2C)c(C)c1	1.3 µM (active)
COCCl	inactive
CCCCC(CC)C(=O)Cl (stereo not drawn)	inactive
Nc1nc(N)nc(Cl)n1	inactive

# return recorded AC50 for input O=NN1CCOCC1
inactive

Give the value of AC50 reported for the following: Cc1cc(-c2cc(C)c(N)c(C)c2)cc(C)c1N
36.3 µM (active)

Consider the compound CC(C)CP(=S)(S)CC(C)C and give its recorded AC50.
inactive

* * *

# Read-out: Macrophage colony-stimulating factor (MCSF), CSF1 (gene 1435)
# Test: BSK_hDFCGF_MCSF: BioMAP Diversity Plus: hDFCGF Assay for Macrophage colony-stimulating factor (MCSF) Biomarker Activity (AID 2283060)
# Measurement Parameters: primary human foreskin fibroblasts; actives raise or lower the signal
Calls of active or inactive are those of the source. The calls were made as follows: active = hit-call score of the fitted dose curve at least 0.9, where 1 is the maximum; inactive = score below 0.9.
Measured Endpoint: AC50

Before answering, review these 6 worked examples.
Compound	AC50
CC(C)(COCC1CO1)COCC1CO1 (centres undefined)	inactive
CCC(C)(C#N)N=NC(C)(C#N)CC (centres undefined)	inactive
Cc1cc(C(C)(C)c2ccc(O)c(C)c2)ccc1O	15.3 µM (active)
CCOP(=O)(OCC)SCCSCC	inactive
CC(C)(C)c1cc([N+](=O)[O-])cc(C(C)(C)C)c1O	inactive
O=C(O)COc1cc(Cl)c(Cl)cc1Cl	inactive

From here, focus on the item given below.
Please report the measured AC50 for O=C1C=CC(=O)c2ccccc21
1.17 µM (active)

* * *

# Read-out: Tumor necrosis factor (Homo sapiens) (UniProt P01375)
# Sequence (P01375 whole entry, looked up): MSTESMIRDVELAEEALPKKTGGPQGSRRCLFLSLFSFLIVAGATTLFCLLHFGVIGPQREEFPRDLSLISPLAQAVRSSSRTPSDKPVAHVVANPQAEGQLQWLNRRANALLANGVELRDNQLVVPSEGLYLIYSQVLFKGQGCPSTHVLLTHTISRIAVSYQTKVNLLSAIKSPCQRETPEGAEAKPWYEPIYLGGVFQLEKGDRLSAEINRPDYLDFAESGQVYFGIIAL
# Test: BSK_LPS_TNFa: BioMAP Diversity Plus: LPS Assay for Tumour Necrosis Factor alpha (TNFa) Biomarker Activity (AID 2283085)
# Measurement Parameters: primary human HUVEC with PBMC; actives raise or lower the signal
Calls of active or inactive are those of the source. Rule for the calls: active = hit-call score of the fitted dose curve at least 0.9, where 1 is the maximum; inactive = score below 0.9.
Output constraint: value belongs to active, inactive

# outcome recorded in this test, key = O=S(=O)(C(Cl)(Cl)Cl)C(Cl)(Cl)Cl
inactive

Called result for CCOP(=O)(OCC)SCCSCC
inactive

// param item: CCN(CC)C(=O)C(Cl)=C(C)OP(=O)(OC)OC ; yields the recorded call
inactive

Hi team, can someone confirm the assay call for O=C(CCl)NCO ?
inactive

Tell me the assay call for CC(C)=CC1C(C(=O)OCc2cccc(Oc3ccccc3)c2)C1(C)C (centres undefined) please.
inactive

Please share the test call associated with Cc1ccc2nc3sc(=O)sc3nc2c1 .
inactive

Record request — test call for Cc1ccccc1OP(=O)(Oc1ccccc1C)Oc1ccccc1C
inactive

Hey, what did the test say about Cc1cccc(OP(=O)(Oc2cccc(C)c2)Oc2cccc(C)c2)c1 ?
active

What outcome does the record of this test show for Nc1c(Oc2ccccc2)cc(O)c2c1C(=O)c1ccccc1C2=O ?
inactive

In this assay, the call recorded for Oc1c(Br)cc(Br)cc1Br was what?
inactive

Write down the call the test reported for this compound. Item: Clc1cccc(Cl)c1Cl
inactive

Please let me know the test result on file for O=C(O)C1(c2ccc3c(c2)OC[C@H](Cc2ccc(-c4ccccc4)cc2)[C@H]3O)CCCC1 .
inactive

Returns: the outcome recorded for CN(C)C(=S)S in this assay.
inactive

Outcome? CC(C)N(C(=O)CCl)c1ccccc1
active

Returns: the outcome recorded for O=C1C=CC(=O)c2ccccc21 in this assay.
active

What was the test verdict on C#CCOC(=O)/C=C(C)/C=C/CC(C)CCCC(C)C (centres undefined) ?
inactive

Which result was noted for this compound in the test: OCCCCO
inactive

Check the results log: what was the call for O=C(Cc1ccccc1)OCCc1ccccc1 ?
inactive

What is the recorded call for this compound in the test? Oc1c(Cl)cc(Cl)cc1Cl
inactive

Given Cc1cc(C)cc(C)c1 , state the outcome it received in this test.
inactive

How was c1ccc2sc(SNC3CCCCC3)nc2c1 classified in this test?
active

Check the results log: what was the call for O=[N+]([O-])c1ccc(Nc2ccccc2)cc1 ?
active

What outcome does the record of this test show for Cc1cc(C(C)(C)c2ccc(O)c(C)c2)ccc1O ?
inactive

Call for entry Oc1cccc(-c2ccccc2)c1 :
inactive

Call for entry Nc1ccc(N)cc1 :
inactive

What was the test verdict on O=S(=O)(c1ccc(Cl)cc1)c1cc(Cl)c(Cl)cc1Cl ?
inactive

Short answer needed: outcome of this test for CC(C)(COCC1CO1)COCC1CO1 (centres undefined) ?
inactive

What call does the record list for O=C(O)COc1cc(Cl)c(Cl)cc1Cl ?
inactive

Hi team, can someone confirm the assay call for CCCCN(CCCC)C(=S)[S-].CCCCN(CCCC)C(=S)[S-].[Ni+2] ?
inactive
